assay: pharmacokinetics and bioavailability in mouse plasma; type: in vivo, Crl:CD-1 mice; details: male, Crl:CD-1, mouse, plasma, inhaled or intranasal, 3 mg/kg, mouse plasma; 3 mg/kg IN

{"columns": ["MOLECULE", "AUC(0-t)"],
 "data": [
  ["Cc1cc(Cn2ncc3c(-c4cccc(C#N)c4F)nc(N)nc32)ccc1N [11o]", "183 ng·h/mL"]
]}

* * *

assay: maximum tolerated dose, single oral administration, dog; details: both sexes, in vivo, single oral administration, male and female beagle dogs
MEASURED_ATTRIBUTE: MTD

{"columns": ["COMPOUND", "MEASURED_ATTRIBUTE", "MEASURED_VALUE"],
 "data": [
  ["Cc1cc(Cn2ncc3c(-c4cccc(C#N)c4F)nc(N)nc32)ccc1N [11o]", "MTD", "> 400 mg/kg"]
]}

* * *

molecular target: hA2A receptors (Homo sapiens, UniProt P29274)
Sequence (P29274 whole entry): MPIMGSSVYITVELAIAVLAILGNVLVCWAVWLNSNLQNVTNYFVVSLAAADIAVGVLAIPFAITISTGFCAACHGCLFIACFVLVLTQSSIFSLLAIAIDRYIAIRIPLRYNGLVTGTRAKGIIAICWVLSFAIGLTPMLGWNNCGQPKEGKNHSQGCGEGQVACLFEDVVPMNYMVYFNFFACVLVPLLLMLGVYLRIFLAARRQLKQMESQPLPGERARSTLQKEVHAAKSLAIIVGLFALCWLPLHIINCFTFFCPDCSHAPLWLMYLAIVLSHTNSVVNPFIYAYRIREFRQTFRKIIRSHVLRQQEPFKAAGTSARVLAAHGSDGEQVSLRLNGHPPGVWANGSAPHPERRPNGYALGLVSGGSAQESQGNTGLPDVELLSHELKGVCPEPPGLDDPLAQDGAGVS
pKi: −log10 of the molar value.

{"columns": ["MOLECULE", "TEST_TARGET", "pKi"],
 "data": [
  ["Cc1cc(Cn2ncc3c(-c4ccnc(C#N)c4)nc(N)nc32)ccc1N [11n]", "hA2A receptors (Homo sapiens, UniProt P29274)", 5.94],
  ["Cc1cc(Cn2ncc3c(-c4cccc(C#N)n4)nc(N)nc32)ccc1N [11l]", "hA2A receptors (Homo sapiens, UniProt P29274)", 8.19],
  ["N#Cc1ccnc(-c2nc(N)nc3c2cnn3Cc2ccc(N)cc2)c1 [11a]", "hA2A receptors (Homo sapiens, UniProt P29274)", 6.51],
  ["N#Cc1cncc(-c2nc(N)nc3c2cnn3Cc2c(F)cc(N)cc2F)c1 [11r]", "hA2A receptors (Homo sapiens, UniProt P29274)", 5.91],
  ["N#Cc1cccc(-c2nc(N)nc3c2cnn3Cc2ccc(N)cc2)c1F", "hA2A receptors (Homo sapiens, UniProt P29274)", 7.71]
]}

* * *

assay: pharmacokinetics and bioavailability in mouse plasma; type: in vivo, Crl:CD-1 mice; conditions: male, Crl:CD-1; mouse plasma; 3 mg/kg PO

{"columns": ["COMPOUND", "DISPLAY_UNIT", "Tmax"],
 "data": [
  ["Cc1cc(Cn2ncc3c(-c4cccc(C#N)c4F)nc(N)nc32)ccc1N [11o]", "h", 2]
]}

* * *

test: metabolic stability in cryopreserved monkey hepatocytes; conditions: monkey, cryopreserved hepatocytes in suspension

{"columns": ["COMPOUND", "half-life at 1 μM [h]"],
 "data": [
  ["Cc1cc(Cn2ncc3c(-c4cccc(C#N)c4F)nc(N)nc32)ccc1N [11o]", 2.07]
]}

* * *

Below are molecules with their pKi as measured on hA1 receptor (Homo sapiens).
Sequence (P30542 whole entry): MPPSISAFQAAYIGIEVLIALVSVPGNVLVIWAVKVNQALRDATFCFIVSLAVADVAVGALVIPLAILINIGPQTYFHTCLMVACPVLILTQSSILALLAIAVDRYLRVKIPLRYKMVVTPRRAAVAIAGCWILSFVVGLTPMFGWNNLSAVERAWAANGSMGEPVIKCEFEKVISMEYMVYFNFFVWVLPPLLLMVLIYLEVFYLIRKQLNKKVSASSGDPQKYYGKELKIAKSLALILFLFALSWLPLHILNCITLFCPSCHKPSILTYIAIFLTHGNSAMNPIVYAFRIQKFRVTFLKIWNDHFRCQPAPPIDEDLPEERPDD
pKi: −log10 of the molar value.

{"columns": ["MOLECULE", "pKi"],
 "data": [
  ["N#Cc1cccc(-c2nc(N)nc3c2cnn3Cc2ccc(N)cc2F)c1F [11j]", 7.20],
  ["N#Cc1ccnc(-c2nc(N)nc3c2cnn3Cc2ccc(N)c(C(F)(F)F)c2)c1 [11v]", 6.60],
  ["N#Cc1cc(-c2nc(N)nc3c2cnn3Cc2ccc(N)cc2)ccn1 [11d]", 5.07],
  ["N#Cc1cccc(-c2nc(N)nc3c2cnn3Cc2ccc(N)c(C(F)(F)F)c2)c1F [11x]", 7.48],
  ["Cc1cc(Cn2ncc3c(-c4cccc(C#N)c4)nc(N)nc32)ccc1N [compound 8]", 6.96],
  ["N#Cc1cccc(-c2nc(N)nc3c2cnn3Cc2ccc(N)cc2F)n1 [11f]", 6.80]
]}
